Values were extracted from patent US20150045301A1.

Test system: Human Pancreatic Adenocarcinoma Cells (HPAC)
EXPERIMENT NOTES: HPAC cell viability / anti-cell proliferative assay (Calbiochem Rapid Cell Proliferation Kit, OD 450 nm)
Format: cell-based
STATED CONDITIONS: peptide 0.1 μM, 48 hours, average of 5 wells
QUANTITY KIND: Optical Densities in 96_Well Plate, Average
Numbers only.

The examples below pair each entry with its known result.
- SUBSTANCE: "PNEEAGAALSPLPEV [Pro-15-Val]"
  NUMBER: 0.918
- SUBSTANCE: "RSSCAGAALSPLGAC [Arg-15-Cys]"
  NUMBER: 0.950
- SUBSTANCE: "AGALSPL [Ala-8-Leu, 8-mer conserved motif peptide]"
  NUMBER: 0.991
- SUBSTANCE: "ANP: atrial natriuretic peptide; Table III sequence SLRRSSCFGGRMDRIGAQSGLGCNSFRY [reference compound]"
  NUMBER: 0.838

query: Query (substance): RSSCFGGRIDRIGAC [C-ANP 4-23, the ANP analog, reference compound] ; field requested: Optical Densities in 96_Well Plate, Average
result: 0.942
